- Test system: IL-1β production in PMA-differentiated THP-1 cells
- assay overview: IL-1β production in PMA-differentiated THP-1 cells stimulated with gramicidin (hTHP-1 assay, 2% fetal bovine serum; Procedures 1-3)
- Type: cell-based, human
- condition description: hTHP-1 assay containing 2% fetal bovine serum, Table B2, class symbols; read-out: IC50
- Experimental: The following protocol is suitable for testing the activity of the compounds disclosed herein. Procedure 1: IL-1β Production in PMA-Differentiated THP-1 Cells Stimulated with Gramicidin. […] THP-1 cells were treated with PMA (Phorbol 12-myristate 13-acetate) (20 ng/ml) for 16-18 hours. […] The plates were incubated for 18 h at 4° C. and read using the preset HTRF program (donor emission at 620 nm, acceptor emission at 668 nm) of the SpectraMax i3x spectrophotometer (Molecular Devices, software SoftMax 6). […]
quantity: IC50

Exam item: Form: Entry = CC(C)(O)c1cnc(S(N)(=O)=NC(=O)Nc2c3c(cc4c2CCC4O)CCC3)s1 (single isomer, unassigned) [Example 657] | System = IL-1β production in PMA-differentiated THP-1 cells | IC50 = ____
Marked response: 1 to 5 µM

Exam item: Then this molecule: CC(C)(O)c1csc(S(N)(=O)=NC(=O)Nc2c3c(cc4c2CCC4=O)CCC3)c1 (single isomer, unassigned) [Example 599]
Marked response: 5 to 30 µM

Exam item: Then this molecule: CC(C)(O)c1cc(S(N)(=O)=NC(=O)Nc2c3c(c(C#N)c4c2CCC4)CCC3)nn1-c1ccccc1 (single isomer, unassigned) [Example 574]
Marked response: 5 to 30 µM

---
Exam item: Form: Entry = CC(O)(CO)c1ncc(S(N)(=O)=NC(=O)Nc2c3c(cc4c2CCC4)CCC3)s1 (stereo not shown) [Example 436] | System = IL-1β production in PMA-differentiated THP-1 cells | IC50 = ____
Marked response: 0.008 to 0.04 µM

----------
- Test system: IL-1β production in PMA-differentiated THP-1 cells
- assay overview: IL-1β production in PMA-differentiated THP-1 cells stimulated with gramicidin (hTHP-1 assay, 2% fetal bovine serum; Procedures 1-3)
- Format: cell-based, human
- condition description: hTHP-1 assay containing 2% fetal bovine serum, Table B2, class symbols; read-out: IC50
Listed here are compounds together with their documented IC50.

Exam item: Form: Entry = CC(C)(O)c1cc(F)c(S(N)(=O)=NC(=O)Nc2c3c(cc4c2CCC4=O)CCC3)s1 (single isomer, unassigned) [Example 601] | System = IL-1β production in PMA-differentiated THP-1 cells | IC50 = ____
Marked response: 5 to 30 µM

Exam item: Then this compound: CN(C)Cc1ccc(S(N)(=O)=NC(=O)Nc2c3c(cc4c2CCC4)CCC3)cn1 (single isomer, unassigned) [Example 617]
Marked response: 0.2 to 1 µM

Exam item: Then this compound: CC(C)(O)c1ccc(S(N)(=O)=NC(=O)Nc2c3c(c(C#N)c4c2CCC4)CCC3)cn1 (single isomer, unassigned) [Example 544]
Marked response: 5 to 30 µM

Exam item: Then this compound: NS(=O)(=NC(=O)Nc1c2c(cc3c1CC3)CCC2)c1ccc(CN2CCC2)cc1F (single isomer, unassigned) [Example 524]
Marked response: 0.2 to 1 µM

Exam item: Then this compound: CC(C)(O)c1cnc(S(N)(=O)=NC(=O)Nc2c3c(cc4c2C(O)CC4)CCC3)s1 (single isomer, unassigned) [Example 652]
Marked response: 1 to 5 µM

---
Exam item: Form: Entry = CC(C)(O)c1cnc(S(N)(=O)=NC(=O)Nc2c3c(cc4c2C(O)CC4)CCC3)s1 (single isomer, unassigned) [Example 653] | System = IL-1β production in PMA-differentiated THP-1 cells | IC50 = ____
Marked response: 5 to 30 µM

Exam item: Then this compound: NS(=O)(=NC(=O)Nc1c2c(cc3c1CCC3)CCC2)c1cnn2c1OCCC2 (single isomer, unassigned) [Example 569]
Marked response: 0.04 to 0.2 µM

Exam item: Then this compound: CC(OC(F)F)c1ccc(S(N)(=O)=NC(=O)Nc2c3c(cc4c2CCC4)CCC3)cc1 (single isomer, unassigned) [Example 638]
Marked response: 1 to 5 µM

Exam item: Then this compound: CN(C)C(c1ccc(S(N)(=O)=NC(=O)Nc2c3c(cc4c2CCC4)CCC3)cc1)C1CC1 (single isomer, unassigned) [Example 659]
Marked response: 5 to 30 µM

Exam item: Then this compound: CNCC(C)(C)c1ccc(S(N)(=O)=NC(=O)Nc2c3c(cc4c2CCC4)CCC3)cc1 (single isomer, unassigned) [Example 519]
Marked response: 1 to 5 µM

Exam item: Then this compound: CN[C@H]1COc2c(S(N)(=O)=NC(=O)Nc3c4c(cc5c3CCC5)CCC4)cnn2C1 (single isomer, unassigned) [Example 698]
Marked response: 1 to 5 µM

----------
Listed here are compounds together with their documented pIC50.
- Tested on: IL-1β production in PMA-differentiated THP-1 cells
- assay overview: IL-1β production in PMA-differentiated THP-1 cells stimulated with gramicidin (hTHP-1 assay, 2% fetal bovine serum; Procedures 1-3)
- Type: cell-based, human
- condition description: hTHP-1 assay containing 2% fetal bovine serum, Table B2, class symbols; read-out: IC50
pIC50: −log10 of the molar value.

Exam item: Endpoint output: pIC50 of NS(=O)(=NC(=O)Nc1c2c(cc3c1CC3)CCC2)c1ccc(CN2CCC2)cc1F (single isomer, unassigned) [Example 525] . Value?
Marked response: 4.52 to 5.30

---
Exam item: Endpoint output: pIC50 of Cc1c(C2CC2)cc2c(c1NC(=O)N=S(N)(=O)c1cnc(C(C)(C)O)s1)CCC2 (single isomer, unassigned) [Example 562] . Value?
Marked response: 5.30 to 6.00

Exam item: Then this compound: CNCc1ccc(S(N)(=O)=NC(=O)Nc2c3c(cc4c2CC4)CCC3)cc1 (single isomer, unassigned) [Example 537]
Marked response: 5.30 to 6.00

Exam item: Then this compound: CC(C)(O)c1cc(F)c(S(N)(=O)=NC(=O)Nc2c3c(cc4c2CC4)CCC3)s1 (single isomer, unassigned) [Example 432]
Marked response: 7.40 to 8.10

Exam item: Then this compound: CO[C@H]1COc2c(S(N)(=O)=NC(=O)Nc3c4c(cc5c3CC5)CCC4)cnn2C1 (single isomer, unassigned) [Example 534]
Marked response: 7.40 to 8.10

Exam item: Then this compound: NS(=O)(=NC(=O)Nc1c2c(cc3c1CCC3)CCC2)c1ccc(C2CCCN2)cc1 (mixture of isomers) [Example 649]
Marked response: 4.52 to 5.30

----------
Listed here are compounds together with their documented IC50.
- Test system: IL-1β production in PMA-differentiated THP-1 cells
- assay overview: IL-1β production in PMA-differentiated THP-1 cells stimulated with gramicidin (hTHP-1 assay, 2% fetal bovine serum; Procedures 1-3)
- Format: cell-based, human
- condition description: hTHP-1 assay containing 2% fetal bovine serum, Table B2, class symbols; read-out: IC50

Exam item: Form: Entry = CN(C)Cc1cnc(S(N)(=O)=NC(=O)Nc2c3c(cc4c2CCC4)CCC3)c(F)c1 (single isomer, unassigned) [Example 517] | System = IL-1β production in PMA-differentiated THP-1 cells | IC50 = ____
Marked response: 5000 to 30000 nM

Exam item: Then this compound: CC(C)(O)c1cc(F)c(S(N)(=O)=NC(=O)Nc2c3c(cc4c2C(=O)CC4)CCC3)s1 (single isomer, unassigned) [Example 538]
Marked response: 5000 to 30000 nM

Exam item: Then this compound: CNC(C)(C)c1ccc(S(N)(=O)=NC(=O)Nc2c3c(cc4c2CCC4)CCC3)cc1 (single isomer, unassigned) [Example 602]
Marked response: 200 to 1000 nM

---
Exam item: Form: Entry = CC(C)(O)c1cnc(S(N)(=O)=NC(=O)Nc2c3c(cc4c2C(O)CC4)CCC3)s1 (single isomer, unassigned) [Example 651] | System = IL-1β production in PMA-differentiated THP-1 cells | IC50 = ____
Marked response: 1000 to 5000 nM

Exam item: Then this compound: CC(C)(O)c1csc(S(N)(=O)=NC(=O)Nc2c3c(cc4c2CC4)CCC3)c1 (single isomer, unassigned) [Example 560]
Marked response: 8 to 40 nM

Exam item: Then this compound: CN(C)[C@H](c1ccc([S@](N)(=O)=NC(=O)Nc2c3c(cc4c2CCC4)CCC3)cc1)C(F)(F)F (single isomer, unassigned)
Marked response: 1000 to 5000 nM

----------
- Tested on: IL-1β production in PMA-differentiated THP-1 cells
- assay overview: IL-1β production in PMA-differentiated THP-1 cells stimulated with gramicidin (hTHP-1 assay, 2% fetal bovine serum; Procedures 1-3)
- Format: cell-based, human
- condition description: hTHP-1 assay containing 2% fetal bovine serum, Table B2, class symbols; read-out: IC50
quantity: IC50

Exam item: Endpoint output: IC50 of CO[C@H]1COc2c(S(N)(=O)=NC(=O)Nc3c4c(cc5c3CC5)CCC4)cnn2C1 (single isomer, unassigned) [Example 535] . Value?
Marked response: 1 to 5 µM

Exam item: Then this compound: Cc1c(C2CC2)cc2c(c1NC(=O)N=[S@](N)(=O)c1cc(C(C)(C)O)cs1)CCC2 (single isomer, unassigned)
Marked response: 1 to 5 µM

Exam item: Then this compound: CNCc1ccc(S(N)(=O)=NC(=O)Nc2c3c(cc4c2CC4)CCC3)cc1 (single isomer, unassigned) [Example 536]
Marked response: 5 to 30 µM

Exam item: Then this compound: CNC(C)(C)c1ccc(S(N)(=O)=NC(=O)Nc2c3c(cc4c2CCC4)CCC3)c(F)c1 (single isomer, unassigned) [Example 592]
Marked response: 5 to 30 µM

Exam item: Then this compound: CNC(C)(C)c1ccc(S(N)(=O)=NC(=O)Nc2c3c(cc4c2CCC4)CCC3)cc1 (single isomer, unassigned) [Example 603]
Marked response: 5 to 30 µM

Consider now this further compound.
Exam item: Endpoint output: IC50 of Cc1c(C2CC2)cc2c(c1NC(=O)N=[S@@](N)(=O)c1cc(C(C)(C)O)cs1)CCC2 (single isomer, unassigned) . Value?
Marked response: 0.008 to 0.04 µM
